Provenance of the data: ChEMBL document CHEMBL4823282

Entries annotated with measured selectivity ratio at 18 h
protocol description: Selectivity ratio of MHC10 for BALB/C mouse erythrocytes to MIC for gram positive bacteria
Assay type: toxicity
Where a SMILES comes first, the peptide text is derived from it. Bridges are numbered along the chain shown (N, C = ends). [ ]: non-standard residue; d: D form. The star is where a group is joined. X1 = CC[C@H](C)CCCCC(=O)*; Dab = NCC[C@H](N)C(=O)O
Keep the answer to the number alone.

The following molecules have reported results that may help.
CC(C)C[C@H](NC(=O)[C@H](CC(C)C)NC(=O)[C@@H](NC(=O)[C@H](CCCCN)NC(=O)[C@H](C)NC(=O)[C@H](CCCNC(=N)N)NC(=O)[C@H](CCCCN)NC(=O)[C@H](C)NC(=O)[C@H](CC(C)C)NC(=O)CN)[C@@H](C)O)C(N)=O (H-GLAKRAKTLL-NH2)
1
CC[C@H](C)CCCCC(=O)N[C@@H](CCN)C(=O)N[C@H](C(=O)N[C@@H](CCN)C(=O)N[C@H]1CCNC(=O)[C@H]([C@@H](C)O)NC(=O)[C@H](CCN)NC(=O)[C@H](CCN)NC(=O)[C@H](CC(C)C)NC(=O)[C@@H](Cc2ccccc2)NC(=O)[C@H](CCN)NC1=O)[C@@H](C)O (X1-[Dab]T[Dab][Dab][Dab][dF]L[Dab][Dab]T; lactam 4-C)
19
C[C@H](NC(=O)[C@H](C)NC(=O)[C@@H](NC(=O)[C@H](CCCCN)NC(=O)[C@H](C)NC(=O)[C@H](CCCNC(=N)N)NC(=O)[C@H](CCCCN)NC(=O)[C@H](C)NC(=O)[C@H](C)NC(=O)CN)[C@@H](C)O)C(N)=O (H-GAAKRAKTAA-NH2)
1
CC[C@H](C)[C@H](NC(=O)[C@H](CCCNC(=N)N)NC(=O)[C@H](CCCNC(=N)N)NC(=O)[C@H](Cc1ccccc1)NC(=O)[C@H](Cc1ccccc1)NC(=O)CN)C(=O)N[C@@H](CCCNC(=N)N)C(=O)N[C@H](C(=O)N[C@@H](Cc1ccccc1)C(=O)N[C@@H](Cc1ccccc1)C(N)=O)[C@@H](C)O (H-GFFRRIRTFF-NH2)
32
CC[C@H](C)[C@H](NC(=O)[C@H](CCCNC(=N)N)NC(=O)[C@H](CCCCN)NC(=O)[C@H](Cc1ccccc1)NC(=O)[C@H](Cc1c[nH]c2ccccc12)NC(=O)[C@@H](N)CCCCN)C(=O)N[C@@H](CCCCN)C(=O)N[C@H](C(=O)N[C@@H](Cc1ccccc1)C(=O)N[C@@H](Cc1c[nH]c2ccccc12)C(N)=O)[C@@H](C)O (H-KWFKRIKTFW-NH2)
13.4
CC[C@H](C)[C@H](NC(=O)[C@H](CCCNC(=N)N)NC(=O)[C@H](CCCCN)NC(=O)[C@H](Cc1ccccc1)NC(=O)[C@H](Cc1ccccc1)NC(=O)CN)C(=O)N[C@@H](CCCNC(=N)N)C(=O)N[C@H](C(=O)N[C@@H](Cc1ccccc1)C(=O)N[C@@H](Cc1ccccc1)C(N)=O)[C@@H](C)O (H-GFFKRIRTFF-NH2)
16

Request: Recorded selectivity ratio at 18 h of C[C@@H](O)[C@H](NC(=O)[C@H](CCCCN)NC(=O)[C@H](Cc1c[nH]c2ccccc12)NC(=O)[C@H](CCCNC(=N)N)NC(=O)[C@H](CCCCN)NC(=O)[C@H](Cc1ccccc1)NC(=O)[C@H](Cc1ccccc1)NC(=O)CN)C(=O)N[C@@H](Cc1ccccc1)C(=O)N[C@@H](Cc1ccccc1)C(N)=O (H-GFFKRWKTFF-NH2) , please.
Result: 32

Request: Entry to check: CC(C)C[C@H](NC(=O)[C@H](Cc1c[nH]c2ccccc12)NC(=O)CN)C(=O)N[C@@H](CCCCN)C(=O)N[C@@H](CCCNC(=N)N)C(=O)N[C@@H](Cc1c[nH]c2ccccc12)C(=O)N[C@@H](CCCCN)C(=O)N[C@H](C(=O)N[C@@H](CC(C)C)C(=O)N[C@@H](Cc1c[nH]c2ccccc12)C(N)=O)[C@@H](C)O (H-GWLKRWKTLW-NH2)
Result: 11.9

Request: Also check CC(C)C[C@H](NC(=O)CN)C(=O)N[C@@H](Cc1c[nH]c2ccccc12)C(=O)N[C@@H](CCCCN)C(=O)N[C@@H](CCCNC(=N)N)C(=O)N[C@@H](Cc1c[nH]c2ccccc12)C(=O)N[C@@H](CCCCN)C(=O)N[C@@H](CCCCN)C(=O)N[C@@H](Cc1ccccc1)C(=O)N[C@@H](Cc1c[nH]c2ccccc12)C(N)=O (H-GLWKRWKKFW-NH2)
Result: 6.19

Request: How about CC(C)C[C@H](NC(=O)[C@H](C)NC(=O)[C@@H](NC(=O)[C@H](CCCCN)NC(=O)[C@H](C)NC(=O)[C@H](CCCNC(=N)N)NC(=O)[C@H](CCCCN)NC(=O)[C@H](CC(C)C)NC(=O)[C@H](C)NC(=O)CN)[C@@H](C)O)C(N)=O (H-GALKRAKTAL-NH2) ?
Result: 1

Request: Now try CC(C)C[C@H](NC(=O)[C@H](CC(C)C)NC(=O)[C@@H](NC(=O)[C@H](CCCCN)NC(=O)[C@H](Cc1c[nH]c2ccccc12)NC(=O)[C@H](CCCNC(=N)N)NC(=O)[C@H](CCCCN)NC(=O)[C@H](CC(C)C)NC(=O)[C@H](CC(C)C)NC(=O)CN)[C@@H](C)O)C(N)=O (H-GLLKRWKTLL-NH2) .
Result: 5.66

Request: Same question, CC[C@H](C)[C@H](NC(=O)CN)C(=O)N[C@@H](CCCNC(=N)N)C(=O)N[C@@H](Cc1c[nH]c2ccccc12)C(=O)N[C@@H](CCCCN)C(=O)N[C@@H](Cc1ccccc1)C(=O)N[C@@H](Cc1c[nH]c2ccccc12)C(=O)N[C@@H](CCCCN)C(=O)N[C@@H](Cc1ccccc1)C(=O)N[C@H](C(N)=O)[C@@H](C)O (H-GIRWKFWKFT-NH2) this time
Result: 6.73
